Test system: PC3 cells
Test: EB1 Comet (microtubule disruption) assay
Assay type: cell-based, human
Conditions: Homo sapiens, PC-3, 1 h, 1 hour treatment, read-out: EB1 pLAC (converted)
Description: The Eb1 Comet assay relies on the detection of the Eb1 protein at the plus end of polymerizing microtubules (Mimori-Kiyosue, 2000) using indirect immunofluorescence. […] Briefly, human prostate cancer PC3 cells obtained from the American Type Culture Collection were grown in 96-well plates (Greiner, cat. no. 655090) in HAM's F12 medium as recommended by the provider (ATCC). […] Compound dependent microtubule disruption was visually determined by the disappearance in Eb1 foci. […]
Checkbox rule: minimal effective concentration lower than 1 µM = Y; minimal effective concentration not lower than 1 µM = N.

1. CCc1cc2ccc([C@](C)(C#N)C[C@H]3Cc4ccccc4O3)cc2[nH]c1=O
N

INPUT: # TODO verify minimal effective concentration < 1 µM strictly for this compound: CCc1cc2ccc(C(C)(C#N)Cc3cccc(/C=C/S(C)(=O)=O)c3)cc2[nH]c1=O (stereo not drawn)
OUTPUT: Y

INPUT: Now consider CCc1cc2ccc(C(C)(C#N)Cc3cc(Cl)ccc3Cl)cc2[nH]c1=O (stereo not drawn) and answer again.
OUTPUT: Y

INPUT: # iterate: CCc1cc2ccc(C(C)(C#N)Cc3cc(OC)nc(C)n3)cc2[nH]c1=O (stereo not drawn)
OUTPUT: Y

INPUT: Another: CCc1cc2ccc(C(C)(C#N)CC3CCc4ccccc4O3)cc2[nH]c1=O (stereo not drawn)
OUTPUT: Y

INPUT: Then what about the compound CCc1cc2ccc(C(C#N)(CC)Cc3nc(C#N)cc(OC)n3)cc2[nH]c1=O (stereo not drawn) ?
OUTPUT: N

INPUT: How about this compound: CCc1cc2ccc(C(C)(C#N)Cc3cccc(NC)c3)cc2[nH]c1=O (stereo not drawn)
OUTPUT: Y

INPUT: Please answer likewise for CCc1cc2ccc(C(C)(C#N)Cc3cc(OC)c(OC)c(OC)c3)cc2[nH]c1=O (stereo not drawn)
OUTPUT: Y
